- Test system: Candida albicans
- PROCEDURE_SUMMARY: In vitro antifungal activity against […] (CA 34140); Not affected.
- Type: functional
ATTRIBUTE_MEASURED: MIC

CO[C@@H]1C[C@H](C[C@@H](C)[C@@H]2CC(=O)[C@H](C)/C=C(\C)[C@@H](O)[C@@H](OC)C(=O)[C@H](C)C[C@H](C)/C=C/C=C/C=C(\C)[C@H](N(O)C(=O)N3CCOCC3)C[C@@H]3CC[C@@H](C)[C@@](O)(O3)C(=O)C(=O)N3CCCC[C@H]3C(=O)O2)CC[C@H]1O ~100 µg/mL
CO[C@@H]1C[C@H](C[C@@H](C)[C@@H]2CC(=O)[C@H](C)/C=C(\C)[C@@H](O)[C@@H](OC)C(=O)[C@H](C)C[C@H](C)/C=C/C=C/C=C(\C)[C@H](N(OC)C(=O)N(C)C)C[C@@H]3CC[C@@H](C)[C@@](O)(O3)C(=O)C(=O)N3CCCC[C@H]3C(=O)O2)CC[C@H]1O ~100 µg/mL

Attention now shifts to the item below.
Query :: What value of MIC has been recorded for this entry: "CO[C@@H]1C[C@H](C[C@@H](C)[C@@H]2CC(=O)[C@H](C)/C=C(\C)[C@@H](O)[C@@H](OC)C(=O)[C@H](C)C[C@H](C)/C=C/C=C/C=C(\C)[C@@H](N(O)C(=O)Oc3ccccc3)C[C@@H]3CC[C@@H](C)[C@@](O)(O3)C(=O)C(=O)N3CCCC[C@H]3C(=O)O2)CC[C@H]1O"
Result :: ~100 µg/mL
